Just for reference, paper PMC9937549 is where these values come from.

System: HepG2 cells
assayRemarks: HepG2 cytotoxicity
Type: cell-based
measuredParameter: pEC50
// field semantics: pEC50 = negative decimal log of concentration (mol/L)

Looking for the measured pEC50 of COc1ccc(N2C(=O)c3[nH]nc(CC(C)C)c3C2c2ccc(F)cc2)cc1 (centres unmarked) [Compound 1] , can you help? 4.20

Looking for the measured pEC50 of COc1ccc(N2C(=O)c3[nH]nc(CC(C)C)c3C2c2ccccc2)cc1 (centres unmarked) [Compound 2] , can you help? 4.10

###

System: L. donovani intracellular amastigotes infecting B10R cells
assayRemarks: Intracellular amastigote assay
Assay type: cell-based
measurementParameters: read-out: L. donovani EC50; intracellular amastigotes infecting B10R cells (UCSD assay), average of two biological replicates
measuredParameter: pEC50
// field semantics: pEC50 = negative decimal log of concentration (mol/L)

Notebook: pull reported pEC50 for L. donovani intracellular amastigotes infecting B10R cells, entry COc1ccc(N2C(=O)c3[nH]nc(CC(C)C)c3C2c2ccc(F)cc2)cc1 (stereo not shown) [Compound 1] 6.09
